Assignment: determine reported IC50 for the given binders.
- Target Under Test: T1, human GLP-1 receptor (human, UniProt P43220 24-463)
- T1 construct: whole, on cells
- Assay Info: 125I-GLP-1 displacement, membranes of CHOK1 cells expressing human GLP-1 receptor
No end group written: not given here.
Give bare numbers, in nM.

# annotated cases, reported IC50 shown
{"columns": ["Binder", "Assay Result"],
 "data": [
  ["HXEGTFTSDVSSYLEGQAAKEFIAWLVKGRGCSGG (Aib (2-aminoisobutyric acid) at position 8 (GLP-1 numbering; residue 2 of the entry), Unconjugated peptide) [H[Aib]EGT FTSDVSSYLEGQAAKEFIAWLVKGRGCSGG (SEQ ID NO: 11)]", 100],
  ["HGEGTFTSDVSSYLEGQAAKEFIAWLVKGRGCSG (not fully specified (residue 32); also: dimer: two peptides on one mal-PEG-mal, one at each end) [cgGLP-6 (SEQ ID NO: 10 + 8k PEG dumbbell)]", 11],
  ["HGEGTFTSDVSSYLEGQAAKEFIAWLVKGRGCSG (not fully specified (residue 32), also called cgGLP-09A) [cgGLP-4 & mgGLP-09A (SEQ ID NO: 10 + 20k PEG)]", 130]
]}

From here, focus on the item given below.
## Task // lookup IC50 for HXEGTFTSDVSSYLEGQAAKEFIAWLVKGRGCSGG (Aib at position 8 (residue 2 of the entry); 20k PEG on the cysteine at position 38 (GLP-1 numbering; residue 32 of the entry)) [cgGLP-17 (SEQ ID NO: 11 + 20k PEG)]
## Result 1000
